Taken from the supplement of paper PMC11208160.

Experiment: recombinant barcode read abundance after kanamycin selection (control-corrected) (log10(CPM+1)); higher = more efficient recombination; sequences stand for … in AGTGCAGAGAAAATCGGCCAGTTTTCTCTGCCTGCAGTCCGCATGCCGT…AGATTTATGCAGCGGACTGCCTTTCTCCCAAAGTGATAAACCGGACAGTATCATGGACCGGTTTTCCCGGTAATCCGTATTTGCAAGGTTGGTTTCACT; site = the 11-nt target
Known recombinant barcode read abundance (log10) of a selection of sequences
reported.metric: recombinant barcode read abundance (log10)

record.sequence	recorded.measurement
TAGCTCACTTGGGTTCTAACCTGTTGCAT (site TAGATCACTAT)	0.0546
CGAGGGTCTTGGGTTCTAACCTGTTGCCT (site CGAGGGCCTAG)	0.279
GTGTACCCTTGGGTTCTAACCTGTTGCCT (site GAGTACCCTAG)	0.64
CCAGCAGCTTGGGTTCTAACCTGTTGCCT (site CCAGAAGCTAG)	0.0762
TCGCGTACTTGGGTTCTAACCTGTTGCAT (site TCGCGTACTAT)	0.189

###

Assay: recombinant barcode read abundance after kanamycin selection (control-corrected) (log10(CPM+1)); higher = more efficient recombination; sequences stand for … in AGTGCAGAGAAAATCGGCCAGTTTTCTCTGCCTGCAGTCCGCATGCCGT…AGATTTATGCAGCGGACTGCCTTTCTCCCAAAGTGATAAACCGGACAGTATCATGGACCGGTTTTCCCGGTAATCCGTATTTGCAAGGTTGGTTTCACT; site = the 11-nt target
reported.metric: recombinant barcode read abundance (log10)

record.sequence	recorded.measurement
AGATGGACTTGGGTTCTAACCTGTTGCAG (site AGATGGCCTAT)	0.0344
ACGCACTCTTGGGTTCTAACCTGTTGCCT (site ACGCATTCTAG)	0.394
TCTCACCCTTGGGTTCTAACCTGTTGCCT (site TCTGATCCTAG)	0.0773
CATGACACTTGGGTTCTAACCTGTTGCCT (site CATGCCGCTAG)	0.0486
TCGCGTTCTTGGGTTCTAACCTGTTGCTT (site TCGCATTCTAT)	0.217

###

Experiment: recombinant UMI read abundance after kanamycin selection (control-corrected) (log10(CPM+1)); higher = more efficient recombination; extreme values may be limits of the assay; sequences stand for … in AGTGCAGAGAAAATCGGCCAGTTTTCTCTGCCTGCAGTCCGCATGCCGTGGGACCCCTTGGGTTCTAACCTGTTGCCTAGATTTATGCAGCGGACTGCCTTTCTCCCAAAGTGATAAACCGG…AGGTTGGTTTCACT; site = the 11-nt donor
# key: entry, value: recombinant UMI read abundance (log10)

record.sequence	recombinant UMI read abundance (log10)
GCTTGTCCATGGACCGGTTTTCCCGGTAATCCGTATTTGAT (site GCTTGCCCTAT)	0.021
CTCAACACATGGACCGGTTTTCCCGGTAATCCGTATTTGCT (site CTCGACACTAG)	0.368
AGGATGACATGGACCGGTTTTCCCGGTAATCCGTATTTGCA (site AGGAAGACTTG)	2.34
ATGTAGGCATGGACCGGTTTTCCCGGTAATCCGTATTTGGA (site ATGTAGGCTCC)	0.209
GGGGAATCATGGACCGGTTTTCCCGGTAATCCGTATTTGGT (site GGGGAATCTAC)	0.628
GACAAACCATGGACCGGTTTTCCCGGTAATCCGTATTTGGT (site GACACACCTAC)	0
CCATACCCATGGACCGGTTTTCCCGGTAATCCGTATTTGCG (site CCATACCCTCG)	0.287
GACCTCCCATGGACCGGTTTTCCCGGTAATCCGTATTTGTG (site GACCTCCCTCA)	0.00533
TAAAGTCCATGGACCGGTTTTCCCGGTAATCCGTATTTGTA (site TAAAGTACTTA)	0.459

###

Assay: recombinant barcode read abundance after kanamycin selection (control-corrected) (log10(CPM+1)); higher = more efficient recombination; sequences stand for … in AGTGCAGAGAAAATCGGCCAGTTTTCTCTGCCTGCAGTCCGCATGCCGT…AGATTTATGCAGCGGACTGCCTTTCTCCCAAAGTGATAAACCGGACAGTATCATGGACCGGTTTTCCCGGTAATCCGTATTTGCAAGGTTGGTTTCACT; site = the 11-nt target
Output t for recombinant barcode read abundance (log10) not less than 0.2; output f otherwise.

record.sequence	cat
CCATCTCCTTGGGTTCTAACCTGTTGCCT (site TCATCTCCTAG)	f
TTAGTAACTTGGGTTCTAACCTGTTGCCT (site CTAGTACCTAG)	f
CCACGAGCTTGGGTTCTAACCTGTTGCGG (site CCACGAGCTCC)	t
ATAAGCTCTTGGGTTCTAACCTGTTGCCT (site CTAAGCTCTAG)	t
CACGAGACTTGGGTTCTAACCTGTTGCCT (site CACGAGCCTAG)	f
ATTCGAGCTTGGGTTCTAACCTGTTGCGC (site ATTCGGGCTAC)	f
TAGAAGGCTTGGGTTCTAACCTGTTGCAT (site TAGAAGGCTAG)	f
TCTTGTCCTTGGGTTCTAACCTGTTGCGT (site TCTTGTCCTGC)	f
TAGAAGACTTGGGTTCTAACCTGTTGCTG (site TAGAAGACTTA)	t
GATAGGACTTGGGTTCTAACCTGTTGCCT (site GATGGGACTCG)	f
AGATCCACTTGGGTTCTAACCTGTTGCCT (site AGATCCACTAG)	t
CGTCGACCTTGGGTTCTAACCTGTTGCCT (site GGTCGACCTAG)	t
AATTCGGCTTGGGTTCTAACCTGTTGCCT (site ACTGCGGCTAG)	t
ACGCGAGCTTGGGTTCTAACCTGTTGCGG (site ACGCGAGCTCC)	t
ATGAGCTCTTGGGTTCTAACCTGTTGCTA (site ATGAGCTCTTA)	t
GAGAGTCCTTGGGTTCTAACCTGTTGCCA (site ATTGAGACTAA)	t
TACCCTACTTGGGTTCTAACCTGTTGCCT (site AACCCTACTAG)	f
TTGCAAACTTGGGTTCTAACCTGTTGCCT (site TTGCGAACTAG)	f
GAGGGCCCTTGGGTTCTAACCTGTTGCTG (site GAGGGCCCTCC)	t
AGTTCATCTTGGGTTCTAACCTGTTGCAT (site CTAGATGCTTC)	f
GGACGTCCTTGGGTTCTAACCTGTTGCCT (site GGACGACCTAG)	f
GAGAGGTCTTGGGTTCTAACCTGTTGCGT (site GAGAGGTCTAA)	t
CACGGTCCTTGGGTTCTAACCTGTTGCCA (site CACGGTCCTTG)	t
TCTCCGCCTTGGGTTCTAACCTGTTGCCT (site TCTCAGCCTAG)	f
TCTGTGTCTTGGGTTCTAACCTGTTGCTA (site TCTGTGTCTTA)	t
GTCCTACCTTGGGTTCTAACCTGTTGCTA (site GTCCTACCTTA)	t
AAATGGGCTTGGGTTCTAACCTGTTGCGG (site AGATGAGCTCC)	f
GATCAACCTTGGGTTCTAACCTGTTGCCT (site GGTCAACCTAG)	f
GCGGCTTCTTGGGTTCTAACCTGTTGCCT (site GAGGCTTCTAG)	f
CATTCCTCTTGGGTTCTAACCTGTTGCCT (site CGTTCCTCTAG)	f
AACGCCTCTTGGGTTCTAACCTGTTGCCT (site TACGCCTCTAG)	t
CCAGAGTCTTGGGTTCTAACCTGTTGCCA (site CCAGAGTCTCG)	f
TATGTAGCTTGGGTTCTAACCTGTTGCCT (site TATGTAGCTTG)	f
GTGTCAACTTGGGTTCTAACCTGTTGCCT (site GTGTCAACTAG)	t
AAGAGAGCTTGGGTTCTAACCTGTTGCCT (site AAGAAAGCTAG)	f
CTTGGAGCTTGGGTTCTAACCTGTTGCCT (site CTTGGATCTAG)	f
AATACTACTTGGGTTCTAACCTGTTGCCT (site ATTACTACTAG)	f
TCAAATTCTTGGGTTCTAACCTGTTGCCT (site TCATATTCTAG)	f
ACCTTAACTTGGGTTCTAACCTGTTGCCT (site ACCTTAACTAG)	f

###

Experiment: recombinant barcode read abundance after kanamycin selection (control-corrected) (log10(CPM+1)); higher = more efficient recombination; sequences stand for … in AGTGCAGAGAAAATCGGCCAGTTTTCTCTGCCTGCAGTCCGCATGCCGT…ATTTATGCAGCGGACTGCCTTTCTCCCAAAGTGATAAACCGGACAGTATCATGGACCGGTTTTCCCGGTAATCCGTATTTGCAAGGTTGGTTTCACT; site = the 11-nt target
reported.metric: recombinant barcode read abundance (log10)

record.sequence	recorded.measurement
GAGGCCTAATGGGTTCTAACCTGTTGCCAAG [GAGGCCTCTTG_LTGcore_AA_RTGcore_CT] (site GAGGCCTCTTG) (LTG core: AA, RTG core: CT)	0.153
AGTCTTACTTGGGTTCTAACCTGTTGCCACC [AGTCTTACTTG_LTGcore_CT_RTGcore_GG] (site AGTCTTACTTG) (LTG core: CT, RTG core: GG)	0.0199
CATATTACTTGGGTTCTAACCTGTTGCCTGG [CATATTACTAG_LTGcore_CT_RTGcore_CC] (site CATATTACTAG) (LTG core: CT, RTG core: CC)	0.0433
TAGAGGGCTTGGGTTCTAACCTGTTGCGGAG [TAGAGGGCTCC_LTGcore_CT_RTGcore_CT] (site TAGAGGGCTCC) (LTG core: CT, RTG core: CT)	2.86
AGTCTTACATGGGTTCTAACCTGTTGCCATG [AGTCTTACTTG_LTGcore_CA_RTGcore_CA] (site AGTCTTACTTG) (LTG core: CA, RTG core: CA)	0.21
